# Test system: S. pneumoniae 376
# assay name: Antibacterial activity in vitro, NCCLS dilution method (Table 10)
# Type: cell-based
# study conditions: S. pneumoniae 376, Gram +, Quin-R
Recorded antibacterial activity (dilution susceptibility test), one value per entry.
Write the value as a bare number.

Known results for molecules:
CC(=O)NC[C@H]1CN(c2ccc(N3CCOCC3)c(F)c2)C(=O)O1 = 1
CN[C@H](CC(C)C)C(=O)N[C@H]1C(=O)N[C@@H](CC(N)=O)C(=O)N[C@H]2C(=O)N[C@H]3C(=O)N[C@H](C(=O)N[C@H](C(=O)O)c4cc(O)cc(O)c4-c4cc3ccc4O)[C@H](O)c3ccc(c(Cl)c3)Oc3cc2cc(c3O[C@@H]2O[C@H](CO)[C@@H](O)[C@H](O)[C@H]2O[C@H]2C[C@](C)(N)[C@H](O)[C@H](C)O2)Oc2ccc(cc2Cl)[C@H]1O = 0.5

Now look at this one.
C[C@@H](O)[C@H]1C(=O)N2C(C(=O)O)=C(S[C@@H]3CN[C@H](C(=O)N(C)C)C3)[C@H](C)[C@H]12 has a reported antibacterial activity (dilution susceptibility test) of 0.015
